- testMethodNotes: amyloid nucleation score (Sup35N fusion, yeast selection) (log enrichment); library NNK1; higher = more nucleation; inactive = no reads after selection;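 note: zero at mode of non-aggregating sequences after 7 days selection at 30°C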

{"columns": ["substance", "amyloid nucleation score"],
 "data": [
  ["DGASMSKRPPRVILKLGIFD", 0.054],
  ["LGPNFGTKFNMGCY", -0.304],
  ["RVLSVIVNILIARFT", -0.028],
  ["GMFYVLVGENCCFYALVWTL", -0.223],
  ["MRRCTGMLCYTIS", 0.97],
  ["YSVGFTCRMVTLSASWYWLW", 0.136],
  ["LHRYNYLVYRSTKCMFGVLI", 0.222],
  ["ILESCIWDITRLRWPYGSSW", 0.741],
  ["GKFRYHGRAMRHSARALIYF", 0.451],
  ["CVLCKQRFTILMQRWLVRK", 0.961],
  ["TNWVWELL", -0.544],
  ["VNCISHGACMCRWFYDSGKK", 0.847],
  ["YHRGIYLFSRSC", -0.906],
  ["LHFVERLSLRPMGVVGFSRK", -0.178],
  ["PKATRIALPFFLGLCFSMCL", -0.143],
  ["YQQPEDCMFECTVVYSSKSR", -0.062],
  ["RRMGKSFKAYTDGVQRKILS", 0.593],
  ["SYSIYALGSRLIVEYSYKWI", 0.625],
  ["NCMKLLEQRGGCLQANGF", 2.09]
]}

---

- testMethodNotes: amyloid nucleation score (Sup35N fusion, yeast selection) (log enrichment); library NNK1; higher = more nucleation; inactive = no reads after selection
measuredProperty: amyloid nucleation score

{"columns": ["sequenceText", "measuredProperty", "valueReported"],
 "data": [
  ["DRPTFKLVFTMKLVSLVTSL", "amyloid nucleation score", "inactive"],
  ["FVCRLATNYH", "amyloid nucleation score", "inactive"],
  ["GLIYTTSLMRVLNSVVGL", "amyloid nucleation score", "inactive"]
]}

---

- testMethodNotes: amyloid nucleation score (Sup35N fusion, yeast selection) (log enrichment); library NNK1; higher = more nucleation; inactive = no reads after selection
measuredProperty: amyloid nucleation score

{"columns": ["sequenceText", "valueReported"],
 "data": [
  ["EDDFASMRLDSLRELVLHNR", "inactive"],
  ["LASFMQRRAYSDGHDMLVRM", "inactive"],
  ["TSCPRYECNENTSVYGSLDT", "inactive"],
  ["RKYKRTVMDMKCYWQGVWSV", 0.136],
  ["NREIPQWIGFVY", 1.12],
  ["ILVSYLSLPT", 0.802],
  ["SCGNLIVRPLVGVCHAWNEE", 0.489],
  ["NSIYHYIVNTFYLNFMGWIE", 1.25],
  ["SSDSVSLYYLISYTPFGRFN", "inactive"],
  ["VLSSGESIRNTAINVEVEHQ", 0.449],
  ["AVLWTHQYFYYYIGLAF", -0.267],
  ["FSNNLHLWAITSVLNIQTSN", 6.25],
  ["HFQKYKELVVSKHN", 0.743],
  ["GHLCSLSSGFN", 0.69],
  ["RVSPFISNTFVVNSKETHGV", 4.56],
  ["SVVCVVSCYKIGAWLRAGG", 0.648],
  ["GYKGQCIIYSTVDSRN", 0.07],
  ["LISLRVHYAASLFFFPVDDF", 0.998],
  ["SFYILTHTNFGTFPLFDDRH", -0.897],
  ["LWVTRRPVGGFMW", 0.721],
  ["NHFVALLSGIGVCSFWKKFG", -0.257],
  ["VCLRLARWILHQKHTYVYWY", "inactive"],
  ["HCQVQHLTQFMWVIVMRTRD", 3.5],
  ["RLDISSYSLFGINQVWA", 2.63],
  ["NRRVCEVR", -0.148],
  ["RFEIIYGWSTYVLDAGVSFQ", 1.21],
  ["SWASKRCSPCCDGSGFPMYL", -1.37],
  ["IDHNLSGLVC", 0.544],
  ["SYVSKSYLYKRGSELQAVLQ", -0.157],
  ["DLTCWLLFFNLLYSI", 0.492],
  ["HPHVMLGILGHN", 0.752],
  ["VMCAGQESESIRGGYSEVNG", 1.17],
  ["QFSHCWMSRRSGVNSAGRSG", -0.238],
  ["VWCVFFLVLYFYR", 0.422],
  ["RIKFDTKMRTVQCSCGSLHS", 2.78],
  ["CQLSNTSIACSLYNLHCRSW", 4.42],
  ["KKFVNFWVMSLYLNSDYSP", "inactive"],
  ["LWCCGGAFHSTDLGSAGLIM", 0.372]
]}

---

A collection of substances and their measured amyloid nucleation score
- testMethodNotes: amyloid nucleation score (Sup35N fusion, yeast selection) (log enrichment); library NNK2; higher = more nucleation; inactive = no reads after selection

{"columns": ["substance", "amyloid nucleation score"],
 "data": [
  ["LIWGTPYKAW", 0.859],
  ["TMKWLCN", 4.69],
  ["SILTVKQRTYVNGGRLYSRY", 0.005],
  ["VFDIWFLGSDTSSCVNWTYR", 6.58],
  ["YKVQTLDAPNYRFIGVFVRS", -0.711],
  ["VFPMNELMASTVNKA", 6.27],
  ["FTNNSPARSCDRVHGDGVRH", 0.376],
  ["ELWLYFFL", -1.07],
  ["VIYSELGYHREPVLCG", -0.972],
  ["FKNFFSYLLLGVPLIAAITW", -1.67],
  ["CWCSLRRFTMLCNMRMNWDN", 1.91],
  ["YVYWWTYERMVSWSIYCVNT", 2.96],
  ["SMVKKLQMESPAFSVGIFWV", 7.74],
  ["IVFYFVFRILSYGGSTIPVG", -1.15],
  ["VVNSVVPKRSRLCHFYFTGM", -1.02],
  ["SISIPCRYYKGLRSTSLYSR", -0.264],
  ["LMSNINVSIYIFG", 7.78],
  ["SHYPKGCHWGGLHSGDRKFP", 0.892]
]}

---

- testMethodNotes: amyloid nucleation score (Sup35N fusion, yeast selection) (log enrichment); library NNK2; higher = more nucleation; inactive = no reads after selection

{"columns": ["substance", "amyloid nucleation score"],
 "data": [
  ["NFYFLIRLKAFSCLRIENWF", 2.28],
  ["TCARFVGMEM", 1.22],
  ["VKWLYTLDSNFVLVFVPCLT", -0.078],
  ["NDGMSSIRWGMTPHYVSSGD", 0.698],
  ["NGARKCFIDAHWESAVANPE", 3.2]
]}

---

- testMethodNotes: amyloid nucleation score (Sup35N fusion, yeast selection) (log enrichment); library NNK1; higher = more nucleation; inactive = no reads after selection
measuredProperty: amyloid nucleation score

{"columns": ["sequenceText", "valueReported"],
 "data": [
  ["SFFFKFYSDSFGNSTFQTID", -0.046],
  ["CRRPEWCEWQGLQTEE", 0.266],
  ["NFTICLGRSTEHPGIRFDAG", -0.207],
  ["TIKEGSLITTDAKYLMGMMK", 2.03],
  ["SSSVCPLHSADSCVSGISAD", 1.73],
  ["DFDNEGLWCS", -0.217],
  ["RVGWMLNGAGALWFFRYKLN", -0.256],
  ["TISLLTHVFLDVLWCGR", -0.779],
  ["TSSAFVCVENTLWTEVVEPM", 0.411],
  ["TCGRGHVTRGYWGTMCGCNG", 1.06],
  ["LAGQVVRRTKTLWHAPAHPY", 0.374],
  ["QAVRIVGERLAFFGN", 0.607],
  ["SFDGLYLNSCRFSLPCLLSR", 0.196],
  ["NLALITWFESYCQTMRSAWI", -0.145],
  ["FVRAIMARVGFTFV", 0.569],
  ["RLTDRHLLWIIMQELNGFLV", -1.09]
]}

---

A collection of sequences and their measured amyloid nucleation score
- testMethodNotes: amyloid nucleation score (Sup35N fusion, yeast selection) (log enrichment); library NNK1; higher = more nucleation; inactive = no reads after selection
measuredProperty: amyloid nucleation score

{"columns": ["sequenceText", "valueReported"],
 "data": [
  ["GKCMYRVCYSEA", -0.056],
  ["VLVFCVTMVRNYSWCIGWRI", 0.035],
  ["ISDEIGIAIENKDSLRKGFR", 0.002],
  ["TLFLKDLSLLAFEFPLNISA", -0.507],
  ["SWLIRLSLYWYVNWSCMVGV", -0.009],
  ["IGACFWRFIFVKLSTNL", -0.406]
]}

Recorded values, source the supplement of paper PMC12042874.
